# EXPERIMENT DESCRIPTION: qHTS for Inhibitors of human tyrosyl-DNA phosphodiesterase 1 (TDP1): qHTS in cells in absence of CPT; also: nearly all actives have a fitted effect of over 55% in size; also: potency is read from the fitted curve at half-maximal effect
# STATED CONDITIONS: DT40 Tdp1-/- hTDP1 cells, no CPT, ATP luminescence, 48 h
Hit rate of the full screen: of about 420,000 compounds, about 64,000 (15%) were called active. Not shown: some 27% with an inconclusive outcome. Not all results are given here.
MEASURED PROPERTY: Potency

# MOLECULE, MEASURED PROPERTY, REPORTED MEASUREMENT
rows = [
    ("CN1/C(=c2/s/c(=C3/C(=O)N(c4ccccc4)NC3=Nc3ccccc3)n(C)c2=O)C(C)(C)c2ccccc21", "Potency", "11.6 µM (active)"),
    ("COc1ccc(CNC(=O)CN2C(=O)c3ccccc3S2(=O)=O)cc1", "Potency", "inactive"),
    ("CCSc1ccccc1C(=O)NCc1ccc(OC)cc1", "Potency", "inactive"),
    ("COc1ccc(Br)cc1/C=N/n1c(C)nnc1C", "Potency", "inactive"),
    ("Cc1nnc(SCC(=O)N2CCc3ccccc3C2)s1", "Potency", "inactive"),
    ("COc1ccc(CNC(=O)C[C@H]2C[C@H](C(=O)N3CCOCC3)[C@@]3(CCC4CCCC4)c4[nH]c5ccc(Cl)cc5c4CCN3C2=O)cc1OC", "Potency", "18.4 µM (active)"),
    ("CCC(C)NC(=O)C1CCC(=O)N1Cc1ccc(C)cc1 (stereo not given)", "Potency", "inactive"),
    ("CC[C@]12c3[nH]c4ccc(Cl)cc4c3CCN1C(=O)[C@@H](CC(=O)NCCCOC)C[C@@H]2C(=O)N1CCN(C(=O)C2CC2)CC1", "Potency", "inactive"),
    ("Cc1nonc1NC(=O)c1ccccc1Br", "Potency", "inactive"),
    ("Cc1nc(SCC(=O)Nc2cc(C)on2)c2c(C)c(C)sc2n1", "Potency", "inactive"),
]

====

# EXPERIMENT DESCRIPTION: qHTS for Inhibitors of human tyrosyl-DNA phosphodiesterase 1 (TDP1): qHTS in cells in absence of CPT; also: nearly all actives have a fitted effect of over 55% in size
# STATED CONDITIONS: DT40 Tdp1-/- hTDP1 cells, no CPT, ATP luminescence, 48 h
Out of some 420,000 compounds screened, about 64,000 (15%) were called active. Another 27% or so got no clear call; they are omitted. Calls come from the whole dose curve; as a rule, active = well fitted inhibition curve with a large enough effect; inconclusive = small, poorly fitted or top-dose-only effect; inactive = flat fitted curve, though single readings scatter. A selection follows.
Possible outcomes: 1 (yes) for active, 0 (no) for inactive

# COMPOUND, CLASS ASSIGNMENT
data = [
    ("COc1ccc(/C=C2/SC(=O)N(CCCCCC(=O)Nc3ccccc3C(=O)O)C2=S)cc1", "0 (no)"),
    ("CN(C)c1nc(-c2cccnc2)nc(-c2ccc(Cl)cc2)c1C#N", "0 (no)"),
    ("O=C(C1CCCO1)N1CCN(S(=O)(=O)c2ccc(Br)cc2)CC1 (configuration not stated)", "0 (no)"),
    ("CC(=O)N1CCN(CC(=O)Nc2ccc(SC(F)F)cc2)CC1", "0 (no)"),
    ("CCC(=O)c1ccc(OCC(O)CN2C(=O)NC(C)(C)C2=O)cc1 (configuration not stated)", "0 (no)"),
    ("CN1CCN(CC(O)COCc2ccc3c(c2)OCO3)CC1 (configuration not stated)", "0 (no)"),
    ("CC1=C(C(N)=O)C(c2ccc(Br)cc2)n2ncnc2N1 (configuration not stated)", "0 (no)"),
    ("Nc1ncnc2c1ncn2[C@@H]1O[C@H](C(=O)NCC(F)(F)F)[C@@H](O)[C@H]1O", "0 (no)"),
    ("COc1ccccc1NC(=O)CCC(=O)OC(C)C(=O)c1ccccc1 (configuration not stated)", "0 (no)"),
    ("Cc1cnc(CN(C)C(=O)C2CCC(=O)N(CCc3cccc(F)c3)C2)[nH]1 (configuration not stated)", "0 (no)"),
    ("Cc1cc(C)cc(OCC(=O)Nc2ccc(S(=O)(=O)Nc3ccccn3)cc2)c1", "0 (no)"),
    ("Oc1ccc(-c2[nH]ncc2-c2nc3ccccc3s2)c(O)c1", "0 (no)"),
    ("Cc1cc(C(=O)N/N=C/c2ccc(O)c([N+](=O)[O-])c2)c(C)n1-c1ccc(F)cc1", "0 (no)"),
    ("COc1cccc(NC(=O)CSc2nnc(C3CCCCC3)n2N)c1", "0 (no)"),
    ("CCc1c(C)sc(NC(=O)C2c3ccccc3Oc3ccccc32)c1C(=O)OC(C)C", "0 (no)"),
    ("CC(NS(=O)(=O)c1ccc(OCC(=O)N2CCCC2)cc1)c1ccccc1 (configuration not stated)", "0 (no)"),
    ("Cc1cc(C)cc(NS(=O)(=O)c2ccc(Oc3ncc(C(F)(F)F)cc3Cl)cc2)c1", "1 (yes)"),
    ("Cc1ccc(N2C(=O)C3C(c4ccccc4)(C2=O)C3(c2ccccc2)c2ccccc2)cc1 (configuration not stated)", "1 (yes)"),
    ("CC(CO)(CO)NC(=O)c1ccc(=O)[nH]n1", "0 (no)"),
    ("O=C(CCN1C(=O)[C@@H]2Cc3ccccc3CN2C1=O)NCCc1ccccc1", "0 (no)"),
    ("Cc1cc(OC(C)C(=O)Nc2sc3c(c2C(N)=O)CCCC3)ccc1Cl (configuration not stated)", "0 (no)"),
    ("CCOC(=O)C1=C(c2ccccc2)Nc2ncnn2C1c1ccc(Cl)cc1 (configuration not stated)", "1 (yes)"),
]
